Reported apparent KD of MS2 coat protein values are given for each entry in this list.
Tested on: MS2 coat protein
Experimental protocol: apparent KD of MS2 coat protein; designed switch direction (-1 OFF switch, 1 ON switch): -1; higher = weaker reporter binding
Measurement parameters: Eterna round: R95; input ligand: FMN 200 uM
Quantity: apparent KD of MS2 coat protein (nM)

{"Residue string": "AAAAUACAUGAGGAUCACCCAUGUAAGGAUAUACGCCUAGUACCGAUGGUACUACAAAGUAGAAGGUACAUGGC [Arma] (puzzle: Exclusion 1)", "Value observed": 17.1}
{"Residue string": "UAUUAGUGAGGAUAUGGUAUAGAUAAGAUGAUGAAAGAACUCCAGAAGGCACAUGAGGAUCACCCAUGUAGUAG [JL-ex4-2.08 Jieux mod] (puzzle: Exclusion 4)", "Value observed": 20.4}
{"Residue string": "AUAAAUAACGUUAGGAUAUAUUUUGUGACAUCAGGAUAGAAGGAACAUGAGGAUCACCCAUGUGAUUCUGUGAA [Maenin] (puzzle: Brourd's mod of Exclusion 4)", "Value observed": 46.6}
{"Residue string": "GGAGCGAUUCUCUUAGUUAACAUGAGGAUCACCCAUGUGUACAAGCUCUUAUUUUGCUCGUCUUACCGAGAGUUGCC [Tienve] (puzzle: Sensor v3, turn-off variant 1)", "Value observed": 22.6}
{"Residue string": "AAUAAAGGAGGAUAUACUAAAAUAUGAAUAAAAUAAAUAAAACAUGAGGAUCACCCAUGUAGAAGGCCUAAUAA [JMF's Not so obvious solution 3] (puzzle: Exclusion 2)", "Value observed": 22.8}
{"Residue string": "AUUGAUGUUGAGGAUAUGCAUAUAUUUAUAAAAGCAGAAGGCGAUACAUGAGGAUCACCCAUGUUCAUGGAAGU [JR_E6_Sub094] (puzzle: Exclusion 6)", "Value observed": 46.7}
{"Residue string": "GUGGAACAUGAGGAUCACCCAUGUGAGGAUAUGUGAGAAGGAUUUGAGAUGGAGAGGGACAGAAGGCACUAGGA [JR_Exclu1_Sub083] (puzzle: Exclusion 1)", "Value observed": 36.3}
{"Residue string": "UAAUAACAAGCGAGAUCCUACAUGAGGAUCACCCAUGUGCUCGUCUUAUAAAGUACUAUCACGAAAGUGAUAGUACA [Mat - Sensor v3 - turn-off var 1 - Eli Mod - D61] (puzzle: Sensor v3, turn-off variant 1)", "Value observed": 17.1}
{"Residue string": "GGAAUACAUGAGGAUCACCCAUGUAAGGAUAUGCUGAAUAUUACGGAAUAAACGUGCAGCAGAAGGUACAAAGG [Mat - Mod of my Eli Mod D47] (puzzle: Exclusion 1)", "Value observed": 105}
{"Residue string": "GUGAAACAUGAGGAUCACCCAUGUGAGGAUAUGAUUUAGUAAUGAUGAAAGUAAAUAUUCAGAAGGCACAAUGG [Mat - Mod of JL D71] (puzzle: Exclusion 1)", "Value observed": 74.2}
{"Residue string": "GGUUGCGCAGGAUAUACAUGAGGAUCACCCAUGUGAGAGAAAUAAGUGAGGAAGAAAAGUAGAAGGGCGUGACG [Mat - Exclusion 3 - Mod of Salish D72] (puzzle: Exclusion 3)", "Value observed": 170}

---

List of apparent KD of K4 kissing-loop reporter values.
Test system: K4 kissing-loop RNA reporter;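 note: bound reporter read as fluorescence of individual clusters on recovered sequencing chips by microscopy, with normalized cluster intensities fitted with a binding model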
Experimental protocol: apparent KD of K4 kissing-loop reporter; higher = weaker reporter binding
Measurement parameters: Eterna round: R107; input ligand: FMN 200 uM

{"Residue string": "AAGCAGUCAGGAUCGAAGAUCCUGCAAAACCGAGGACCGGUACGGCCGCCACUCGGAGUGAUGUUCCGAAGACUGCAAAAUAAAA [#SwitchBubble 6]", "apparent KD of K4 kissing-loop reporter, µM": 0.191}
{"Residue string": "UUUAAAUAUAGUGAUGUUAUAUAACAAUGACGAGGACCGGUACGGCCGCCACUCGAGAGAGAUAAUGGUCAUACAAAUGUAUGUC [AstrosSSTryA#7]", "apparent KD of K4 kissing-loop reporter, µM": 0.799}
{"Residue string": "CUGACGUGCGGUAGGUUCAAGUGCUGGGAAGGAGCGCAGAUGACUGCAGGUAGGUCGCCCAGUGAUGUUGGGCUUUCCACCUACG [Quinbe]", "apparent KD of K4 kissing-loop reporter, µM": 0.186}
{"Residue string": "AAAAUAAACCAGUGAUGUUGGUGUCCAGAUACCAGCGAUAAAAUUCGCCCUUGGCAGCUGUGGACGUACAAAAUAAGUACGUCCU [MatMod 3 - Jieux - Same State - Theophylline A]", "apparent KD of K4 kissing-loop reporter, µM": 0.734}
{"Residue string": "GGAGCAGGUGAAGGAUAUCCCGGGCCAGAGUGAUGUUCUGGAUCCCUUGCCGUUUCUAAACGGGUGGGAGAAGGUCACUGAUAAG [Bibimati]", "apparent KD of K4 kissing-loop reporter, µM": 0.132}
{"Residue string": "UGUCAUUGGUCUGAUACCAGUACCCUUGGCAGCCGAGGAGUGAUGUUCCAAGGAUACCAGUACCCUUGGCAGCAGACCGAUGACU [TheoBS 30 #DoubleAptamer #SwitchBubble]", "apparent KD of K4 kissing-loop reporter, µM": 0.219}

---

Listed here are sequences together with their documented apparent KD of MS2 coat protein.
Test system: MS2 coat protein
Experimental protocol: apparent KD of MS2 coat protein; designed switch direction (-1 OFF switch, 1 ON switch): -1; higher = weaker reporter binding
Measurement parameters: input ligand: FMN 200 uM

{"Residue string": "ACUGGUCGAGGAUAUACAUGAGGAUCACCCAUGUGGUCACGUGACGAUAGUCACGAAUGUAGAAGGCGACCAGU [E3/3-A2] (Eterna round: R97, puzzle: Exclusion 3)", "apparent KD of MS2 coat protein": "15.7 nM"}
{"Residue string": "CAGGGCAUGCGAGGAUAUAGCAACAUGAGGAUCACCCAUGUAUAAGGGUGUCCAAGGCAUGCGCGCUAGAAGGCGCUGGUUCUC [Gemadi] (Eterna round: R96, puzzle: Exclusion NG 2)", "apparent KD of MS2 coat protein": "343 nM"}
{"Residue string": "GCAGCAAUCUCAAUUAAAACCACAUGAGGAUCACCCAUGUCUCAGGAUAUGGUCUGGAUUACAGGCCAGAAGGGAGAAAGCUGC [Eli exng3 - 053] (Eterna round: R96, puzzle: Exclusion NG 3)", "apparent KD of MS2 coat protein": "13.5 nM"}
{"Residue string": "AUAGGUUCGUAGGAUAUUCCUGCAGGCGCGCUGGAAGAAGGAUGAACAUGAGGAUCACCCAUGUGAACACUCCG [Eternabot (L2) Solution 88] (Eterna round: R97, puzzle: Exclusion 6)", "apparent KD of MS2 coat protein": "78.3 nM"}
{"Residue string": "UAGCAGAGAGGAUAUACAUUCAUCACCCGCGCAUCAUGCGCACAUGAGGAUCACCCAUGUAGAAGGCUCGUGCC [EX2 C.27] (Eterna round: R97, puzzle: Exclusion 2)", "apparent KD of MS2 coat protein": "74.3 nM"}
{"Residue string": "GUAAUAGUGGUUAGGAUAUGCGAUCGAAAAUAGGUGCAGAAGGAACAUGAGGAUCACCCAUGUGCCUCCUCAAU [Eternabot (L1) Solution 6] (Eterna round: R97, puzzle: Brourd's mod of Exclusion 4)", "apparent KD of MS2 coat protein": "24.2 nM"}
{"Residue string": "AGUAUGUCAGGAUAUCUCGGGUAGUCCACAACAGCUACCGAAGAGAAGGGACAUGAGGAUCACCCAUGUACCAU [EX4 B.23] (Eterna round: R97, puzzle: Exclusion 4)", "apparent KD of MS2 coat protein": "19.4 nM"}
{"Residue string": "UACAUGAGGAUCACCCAUGUUUUGUCGUGUAUGGUAUUUAUCUAGGAUAUCAAUUUGGUUAUUUAUGAGAAGGAGAAUAUUAAU [JMF's solution 66] (Eterna round: R96, puzzle: Exclusion NG 3)", "apparent KD of MS2 coat protein": "48.9 nM"}
{"Residue string": "GGCCUCGCGGUCAGGAUAUAUUGCUGUAAUCAGUGGUAGAAGGGACAUGAGGAUCACCCAUGUACCUAGGACAU [BmEX4 C.20] (Eterna round: R97, puzzle: Brourd's mod of Exclusion 4)", "apparent KD of MS2 coat protein": "33.4 nM"}
{"Residue string": "UCCUGACAUGAGGAUCACCCAUGUGAGGAUAUGUGGUUCGGGUCAACUCCCGUUCCGUGCAGAAGGCACAGGGC [EX1 A.29] (Eterna round: R97, puzzle: Exclusion 1)", "apparent KD of MS2 coat protein": "26.4 nM"}
{"Residue string": "AUAAAUCAUGUAGGAUAUGCGUGGCGAAGCUAUGCAGAAGGACAUGAGGAUCACCCAUGUGCUUGCGUCUGAGUACAGAUGCUA [Mat - Exclusion NG 1 - Mod of JL - D6] (Eterna round: R96, puzzle: Exclusion NG 1)", "apparent KD of MS2 coat protein": "264 nM"}
{"Residue string": "AACCCGAUAGGAUAUACUUGAGGAUCACCCAAGUACGCCUGCAAUGCAAGCGCCUGAAGUAGAAGGAUCAAAAG [Gexetele] (Eterna round: R97, puzzle: Exclusion 3)", "apparent KD of MS2 coat protein": "21 nM"}
{"Residue string": "UUAAUUAAUGUCAGGAUAUCUAGAGCUUCGGCUCUAGAGAAGGGACAUGAGGAUCACCCAUGUCACUCUUAAUU [BmEx4/3-C1] (Eterna round: R97, puzzle: Brourd's mod of Exclusion 4)", "apparent KD of MS2 coat protein": "21.1 nM"}
{"Residue string": "AAAGAUGGAGGAUAUACAUGAGGAUCACCCAUGUAGAAAAAAAAUUGGGAAAAAGAAAGUAGAAGGCCAAAAAA [Ex 3 May 43] (Eterna round: R96, puzzle: Exclusion 3)", "apparent KD of MS2 coat protein": "67.6 nM"}
{"Residue string": "CCUGCGGACAAAGGAUAUUGCGGUGACCGGCUCGGCGUACCGAGCCUACAUGAGGAUCACCCAUGUAAGAAGGUUGUCGCUGGU [JL ViennaUCT Qudice mod 2] (Eterna round: R96, puzzle: Exclusion NG 2)", "apparent KD of MS2 coat protein": "104 nM"}
{"Residue string": "CUAGAUCUUCGGAUCUAGGACAUGAGGAUCACCCAUGUCACGAGCAGAUCUUCAUGCAAGCUUUUUGCUCGUCUUAU [Sensor v3 - Turn-off variant 1 - 37] (Eterna round: R96, puzzle: Sensor v3, turn-off variant 1)", "apparent KD of MS2 coat protein": "27 nM"}
{"Residue string": "GAUCGACAUGAGGAUCACCCAUGUCAGGAUAUCGUCACUGGAGCCUCGGCUCCAGUGACGAGAAGGGAUAUAAU [E1/16-A2] (Eterna round: R97, puzzle: Exclusion 1)", "apparent KD of MS2 coat protein": "31.6 nM"}
{"Residue string": "CUAGUAUAUCAGGAUAUGAUUUUAUAUAGUUGAUCAGAAGGGAUAACAUGAGGAUCACCCAUGUUAAGGAGUGA [JR_Ex6_Sub042] (Eterna round: R97, puzzle: Exclusion 6)", "apparent KD of MS2 coat protein": "99.2 nM"}
{"Residue string": "GUGCUACAUGAGGAUCACCCAUGUCAGGAUAUGCGAAUUUCAUCAAAAGAUGAAAUUUGCAGAAGGGACAACAC [Omei Ex1 A18] (Eterna round: R97, puzzle: Exclusion 1)", "apparent KD of MS2 coat protein": "88.2 nM"}
